Tested on: human airway epithelial cells (HAECs)
Assay: High-throughput sequencing (HTS) of miRNAs at four stages of differentiation of HAECs
Details: HTS, ALI-WD
experimental_readout: Abundance (%), WD
Expressed in %, but write only the number.

A selection of reference data follows.
substance	Abundance (%), WD
hsa-miR-449a: human miRNA, SEQ ID No. 46 (UGGCAGUGUAUUGUUAGCUGGU; expressed or natural sequence; listed as Homo sapiens)	5.70
hsa-miR-23b: human miRNA, SEQ ID No. 26 (AUCACAUUGCCAGGGAUUACC; expressed or natural sequence; listed as Homo sapiens)	6.72
hsa-miR-29c: human miRNA, SEQ ID No. 32 (UAGCACCAUUUGAAAUCGGUUA; expressed or natural sequence; listed as Homo sapiens)	3.82
hsa-miR-205: human miRNA, SEQ ID No. 20 (UCCUUCAUUCCACCGGAGUCUG; expressed or natural sequence; listed as Homo sapiens)	3.87
hsa-miR-29a: human miRNA, SEQ ID No. 31 (UAGCACCAUCUGAAAUCGGUUA; expressed or natural sequence; listed as Homo sapiens)	4.64

Suppose we examine the substance hsa-miR-449c: human miRNA, SEQ ID No. 201 (UAGGCAGUGUAUUGCUAGCGGCUGU; expressed or natural sequence; listed as Homo sapiens) ; what Abundance (%), WD value has been reported? 0.20

The reported measurements were obtained from patent US9023821B2.
